Data origin, for the record: PubChem BioAssay (NCI)

tested on: HCC-2998 colon; experiment: NCI tumour cell line growth inhibition, 48 h
REPORTED_ENDPOINT: TGI

{"columns": ["MOLECULE", "TGI"],
 "data": [
  ["CO[C@H]1C=CO[C@@]2(C)Oc3c(C)c(O)c4c(O)c(c(CN5CCN(C)CC5)c(O)c4c3C2=O)NC(=O)/C(C)=C\\C=C[C@H](C)[C@H](O)C(C)[C@@H](O)C(C)[C@H](OC(C)=O)[C@@H]1C (stereo partly specified)", "> 100 µM"],
  ["O=C1C=CC2OC(c3ccccc3)C(O)C2O1 (stereo unspecified)", "10.9 µM"],
  ["COc1ccc(/C=C/C(=O)/C=C/c2ccc(OC)cc2OC)c(OC)c1", "13.3 µM"],
  ["COC(=O)c1cc(C(=O)OC)c(CC(=O)C(=O)NC2C3CC4CC(C3)CC2C4)nc1CC(=O)C(=O)NC1C2CC3CC(C2)CC1C3 (stereo unspecified)", "> 100 µM"],
  ["COc1ccc([N+](=O)[O-])c2c(NCCCN(C)C)ccnc12", "6.95 µM"],
  ["Clc1cc2nn(C3CCCCO3)nc2cc1Cl (stereo unspecified)", "> 100 µM"],
  ["CCOC(=O)C(=O)C=P(c1ccccc1)(c1ccccc1)c1ccccc1", "> 100 µM"],
  ["Nc1c(C(=O)Nc2ccccc2)sc2nc3c(cc12)CCCCC3", "> 100 µM"],
  ["O=C1/C=C/[C@@H](O)[C@@H]2C[C@@H](O)C[C@H]2/C=C/CCC[C@H](CCc2cccc3ccccc23)O1", "0.33 µM"],
  ["CCOC(=O)/C=C(\\C(=O)OCC)n1ccc(=O)n(Cc2cnnn2CCCCOC(C)=O)c1=O", "35.5 µM"]
]}

Next molecule, please.
Quick one: TGI for "COc1ccc2c(c1)c(-c1nc(-c3c[nH]c4ncccc34)cs1)cn2CCCN1CCCCC1" ?
3.42 µM

---

test system: CCRF-CEM leukemia; experiment: NCI tumour cell line growth inhibition, 48 h
TGI reference

Record excerpt, results attached:
{"columns": ["COMPOUND", "TGI"],
 "data": [
  ["COc1ccc(/C(=N\\NC(=O)NN)C(c2ccc(OC)cc2)C2(O)C(=O)Nc3c(Cl)cc(Cl)cc32)cc1 (stereo not given)", "> 100 µM"],
  ["Cc1ccc(C(=O)Nc2ccc(CP(=O)(O)O)cc2)cc1NC(=O)c1cccc(N)c1", "> 100 µM"],
  ["COc1ccc(/C(C)=N/NC(=O)c2ccncc2)c(OC)c1", "> 10 µM"]
]}

What does the data say about its TGI? Entry: "COc1cc(OC)cc(-c2ccc(-c3ccc(C(=N)N)cn3)o2)c1"
4.6 µM

Field entry: "C[C@H]1/C(=C/C(=O)OCCN(C)C)CC[C@H]2[C@H]1C(=O)C[C@H]1C(C)(C)[C@@H](O)CC[C@]21C"
> 100 µM

Next entry: "CC(=O)c1[nH]c(NC(C)C)c(C(=S)Nc2ccccc2)c1N"
72.9 µM

Record: "COc1cc(C)c(/C=C2/N=C(c3ccccc3)OC2=O)c([N+](=O)[O-])c1OC"
> 100 µM

What do we get for "Cc1c(-c2ccc(C3CCCCC3)cc2)nc2ccc(F)cc2c1C(=O)O" ?
> 100 µM

Let us now turn to "NCCSc1cc(O)c2c(c1N)C(=O)c1ccccc1C2=O"
43.1 µM

Same again, this time with CC(CCC[C@H](C)CO)[C@H]1[C@@H](O)C(O)C2[C@@H]3C[C@@H](O)C4(O)C[C@@H](O)CC[C@]4(C)C3CC[C@@]21C (stereo not given in full)
> 100 µM

---

Measured TGI by item
test system: ACHN renal; test: NCI tumour cell line growth inhibition, 48 h

Some entries whose results are on file:
{"columns": ["MOLECULE", "TGI"],
 "data": [
  ["O=C(Nc1ccc(Cc2ccccc2)cc1)Nc1nn(C(=O)Nc2ccc(Cc3ccccc3)cc2)c2ccccc12", "> 100 µM"],
  ["O=C1CSC(c2c[nH]c3ccccc23)N1c1ccc(Cl)cc1 (configuration not stated)", "> 100 µM"]
]}

Fill in: TGI of Oc1ccc([C@H]2c3c(O)cc(O)cc3C3c4c(cc(O)cc4[C@@H]2[C@H]2c4cc(O)cc5c4C(c4cc(O)cc(O)c4[C@@H]2c2ccc(O)cc2)[C@@H](c2ccc(O)cc2)O5)O[C@@H]3c2ccc(O)cc2)cc1 (some centres not stated) is ___
> 100 µM

Now the same for "CCCCCCCCCCCCCCCCCc1nccn1CCOCCO"
11.1 µg/mL

Also need CCOC(=O)CC(c1ccccc1)C(C)(C(=O)OCC)C(=O)OCC (configuration not stated) , thanks.
> 100 µM

# iterate: "O=c1c2ccccc2[nH]n1Cc1ccccc1"
> 100 µM

What do you get for COc1cc2c(c(OC)c1OC)-c1ccc(SC)c(=O)cc1C(CC(=O)Oc1cccc([N+](=O)[O-])c1)C2 (configuration not stated) ?
> 100 µM

Same question, C[C@@]1(C(=O)O)CCC[C@]2(C)C1CC[C@@]13C[C@@](O)(CC[C@]12O)[C@@]1(CO1)C3 (some centres not stated) this time
> 100 µM

What do you have for "Nc1c(C(=O)Nc2ccccc2)sc2nc3c(cc12)CCCCC3" ?
> 100 µM

Likewise for COc1cc(C2C3=C(COC3=O)Oc3cc4c(cc32)OCO4)ccc1O (configuration not stated) ?
> 94.7 µM

Another molecule to check: "Cc1c(O)c(N=Nc2nc3ccccc3s2)c2ccccc2c1O"
> 50 µM

Moving on to "C=CCN1/C(=C(\C#N)c2nc3ccccc3[nH]2)Sc2c1nc[nH]c2=O"
> 100 µM

---

test system: SN12C renal; assay: NCI tumour cell line growth inhibition, 48 h
REPORTED_ENDPOINT: TGI

{"columns": ["COMPOUND", "TEST_VALUE"],
 "data": [
  ["COC1C(O)CC(OC2CC(OC3CC(O[C@@H]4C(=O)c5c(cc6cc(OC7CC(OC8CC(O)C(O)C(C)O8)C(O)C(C)O7)c(C)c(O)c6c5O)CC4[C@H](OC)C(=O)O)OC(C)C3O)OC(C)C2O)OC1C (stereo partly drawn)", "> 33.3 µM"]
]}

Quick check: TGI of "Cc1ccc(Nc2nccc(N(C)c3ccc4c(C)n(C)nc4c3)n2)cc1S(N)(=O)=O" ?
> 100 µM

What do we get for "COc1ccc(C=Nc2c(C(=O)Nc3cccc(Cl)c3C)sc3nc(C)c(C(=O)/C=C/c4ccc(OC)cc4)cc23)cc1" ?
> 50 µM

---

tested on: OVCAR-5 ovarian; assay: NCI tumour cell line growth inhibition, 48 h
The compounds listed here are annotated with their TGI.

{"columns": ["COMPOUND", "TGI"],
 "data": [
  ["Clc1cc2nn(C3CCCCO3)nc2cc1Cl (configuration not stated)", "> 100 µM"],
  ["COc1cc(CSc2ccc(O)cc2)cc(OC)c1OC", "> 100 µM"],
  ["CC(=O)c1[nH]c(NC(C)C)c(C(=S)Nc2ccccc2)c1N", "> 100 µM"],
  ["O=C(CC1(O)C(=O)N(Cc2ccccc2)c2ccc(Cl)cc21)c1ccc(C(=O)NCC2CCC3(CC2)OOC2(CCCCC2)OO3)cc1 (configuration not stated)", "6.28 µM"],
  ["CCOC(=O)c1nc2ccc(C(F)(F)F)cc2nc1Nc1cc(OC)c(OC)c(OC)c1", "> 100 µM"]
]}

Recall the recorded TGI for "COc1ccc(C=Nc2c(C(=O)Nc3cccc(Cl)c3C)sc3nc(C)c(C(=O)/C=C/c4ccc(OC)cc4)cc23)cc1" with OVCAR-5 ovarian and state it.
> 50 µM

Next entry: "CCOC(=O)C(=O)Nc1nc2c(OCC)cccc2s1"
> 100 µM

One more compound: "CNC(=O)NCNC(=O)NC"
> 100 µM

And for "CC(C)C(=O)N1Cc2cc(Cl)cc(Cl)c2OC(=O)c2ccccc21" ?
90 µM

Please answer likewise for CC(=O)OCC1OC(n2ccc(=O)[nH]c2=O)C(OC(C)=O)C(OC(C)=O)C1OC(C)=O (configuration not stated)
> 100 µM

---

test system: 786-0 renal; assay: NCI tumour cell line growth inhibition, 48 h; in the data active = GI50 below about 0.43 µM; inactive = the rest
Returns: one label drawn from True = active, False = inactive

Consider the worked cases shown below.
{"columns": ["MOLECULE", "LABEL_CLASS"],
 "data": [
  ["CC1=CC(C)=NN=C(N)N1S(=O)(=O)c1cc(C)c(Cl)cc1SCc1ccccc1", "False"],
  ["Cc1c(-c2ccc(C3CCCCC3)cc2)nc2ccc(F)cc2c1C(=O)O", "True"],
  ["COc1ccc(/C=C2\\CN(C(=O)C(Cl)Cl)C/C(=C\\c3ccc(OC)cc3)C2=O)cc1", "False"],
  ["COC1C(O)CC(OC2CC(OC3CC(O[C@@H]4C(=O)c5c(cc6cc(OC7CC(OC8CC(O)C(O)C(C)O8)C(O)C(C)O7)c(C)c(O)c6c5O)CC4[C@H](OC)C(=O)O)OC(C)C3O)OC(C)C2O)OC1C (stereo not given in full)", "False"]
]}

Pending molecule:
For this molecule, state the assay outcome: COc1cc(C2CC(c3cccc(Nc4ccnc5cc(Cl)ccc45)c3)=NN2c2ccc(Cl)cc2)cc(OC)c1OC (stereo not given)
False
